# Tested on: HuO9 (Osteosarcoma)
# assay: Bliss excess, mean over the matrix (fraction); higher = more synergy
quantityName: Bliss excess
Simply state the number, no unit and no words.

For orientation, consider the following solved cases.
COc1nnc2ccc(N3CCC(c4ccc(OCCN5CCN(C)C(=O)[C@H]5C)cc4)CC3)nn12 [AZD5153] + Cc1c2c(nn1C)CSCc1cc(n(C)n1)CSc1cc(c3ccccc3c1)OCCCc1c(C(=O)O)n(C)c3c-2c(Cl)ccc13 [AZD5991] (first compound max 1 µM, 7x7, partner max 1 µM)
0.0377
CC1(C)CCC(CN2CCN(c3ccc(C(=O)NS(=O)(=O)c4ccc(NCC5CCOCC5)c([N+](=O)[O-])c4)c(Oc4cnc5[nH]ccc5c4)c3)CC2)=C(c2ccc(Cl)cc2)C1 [Venetoclax] + COc1cc(Nc2ncc3c(n2)-c2ccc(Cl)cc2C(c2c(F)cccc2OC)=NC3)ccc1C(=O)O [Alisertib] (first compound max 1 µM, 7x7, partner max 10 µM)
0.135
COc1cccc(OCCCN)c1-c1cc(Nc2cnc(C#N)cn2)n[nH]1 [Prexasertib] + CCc1c2c(nc3ccc(O)cc13)-c1cc3c(c(=O)n1C2)COC(=O)[C@]3(O)CC [SN-38] (first compound max 1 µM, 7x7, partner max 0.3 µM)
-0.0301

What value of measured Bliss excess is listed for COc1cccc(OCCCN)c1-c1cc(Nc2cnc(C#N)cn2)n[nH]1 [Prexasertib] + C=CCn1c(=O)c2cnc(Nc3ccc(N4CCN(C)CC4)cc3)nc2n1-c1cccc(C(C)(C)O)n1 [AZD1775] (first compound max 1 µM, partner max 1 µM) ?
0.109

====

# Test system: TC-YIK (Other Solid Carcinomas)
# assay: combination Emax (second highest fraction inhibited in the dose matrix, 72 h); higher = more inhibition; extreme values may be limits of the assay
quantityName: combination Emax

In the examples that follow, each entry is paired with its recorded combination Emax.
COc1cc2ncnc(Nc3ccc(F)c(Cl)c3)c2cc1OCCCN1CCOCC1 [Gefitinib] + CC(C)n1c(=O)n(C)c2cnc3cc(F)c(-c4ccc(OCCCN5CCCCC5)nc4)cc3c21 [AZD1390] (first compound max 10 µM, 7x7, partner max 0.3 µM)
0.188
CS(=O)(=O)CCNCc1ccc(-c2ccc3ncnc(Nc4ccc(OCc5cccc(F)c5)c(Cl)c4)c3c2)o1 [Lapatinib] + Cn1cnc2c(F)c(Nc3ccc(Br)cc3Cl)c(C(=O)NOCCO)cc21 [Selumetinib] (first compound max 10 µM, 7x7, partner max 10 µM)
0.531

Please examine the following record next.
Which measured combination Emax value corresponds to CN(CCO)CC[C@H](CSc1ccccc1)Nc1ccc(S(=O)(=O)NC(=O)c2ccc(N3CCC([C@@H](O)c4ccccc4-c4ccc(Cl)cc4)CC3)cc2)cc1S(=O)(=O)C(F)(F)F [AZD4320] + Nc1ccn([C@@H]2O[C@H](CO)[C@@H](O)C2(F)F)c(=O)n1 [Gemcitabine] (first compound max 1 µM, 7x7, partner max 0.3 µM) ?
1

====

# Tested on: MCF7 (Breast Carcinoma)
# assay: combination Emax (second highest fraction inhibited in the dose matrix, 72 h); higher = more inhibition; extreme values may be limits of the assay
quantityName: combination Emax
Give the figure only, with no unit attached.

Completed entries (count: 4):
CC1(C)CCC(CN2CCN(c3ccc(C(=O)NS(=O)(=O)c4ccc(NCC5CCOCC5)c([N+](=O)[O-])c4)c(Oc4cnc5[nH]ccc5c4)c3)CC2)=C(c2ccc(Cl)cc2)C1 [Venetoclax] + Cn1cnc2c(F)c(Nc3ccc(Br)cc3Cl)c(C(=O)NOCCO)cc21 [Selumetinib] (first compound max 1 µM, 7x7, partner max 3 µM)
0.104
COc1nnc2ccc(N3CCC(c4ccc(OCCN5CCN(C)C(=O)[C@H]5C)cc4)CC3)nn12 [AZD5153] + C=CCn1c(=O)c2cnc(Nc3ccc(N4CCN(C)CC4)cc3)nc2n1-c1cccc(C(C)(C)O)n1 [AZD1775] (first compound max 1 µM, partner max 1 µM)
0.684
C[C@@H](c1ccc2nccn2c1)n1nnc2ncc(-c3cnn(C)c3)nc21 [Savolitinib] + CN(CC[C@H](CSC1=CC=CC=C1)NC2=C(C=C(C=C2)S(=O)(=O)NC(=O)C3=CC=C(C=C3)N4CCC(CC4)[C@H](C5=CC=CC=C5C6=CC=C(C=C6)Cl)O)S(=O)(=O)C(F)(F)F)CCO [AZD4320] (first compound max 1 µM, 7x7, partner max 1 µM)
0.162
COc1cccc(OCCCN)c1-c1cc(Nc2cnc(C#N)cn2)n[nH]1 [Prexasertib] + CCc1c2c(nc3ccc(O)cc13)-c1cc3c(c(=O)n1C2)COC(=O)[C@]3(O)CC [SN-38] (first compound max 1 µM, 7x7, partner max 0.3 µM)
0.685

Need combination Emax, item CC(=O)Nc1cccc(-n2c(=O)n(C3CC3)c(=O)c3c(Nc4ccc(I)cc4F)n(C)c(=O)c(C)c32)c1 [Trametinib] + Cc1nc(-c2cn3c(n2)-c2ccc(-c4cnn(C(C)(C)C(N)=O)c4)cc2OCC3)n(C(C)C)n1 [Taselisib] (first compound max 1 µM, 7x7, partner max 10 µM)
0.732

I am curious: what combination Emax value has been reported for CC(=O)c1c(C)c2cnc(Nc3ccc(N4CCNCC4)cn3)nc2n(C2CCCC2)c1=O [Palbociclib] + CN(CC[C@H](CSC1=CC=CC=C1)NC2=C(C=C(C=C2)S(=O)(=O)NC(=O)C3=CC=C(C=C3)N4CCC(CC4)[C@H](C5=CC=CC=C5C6=CC=C(C=C6)Cl)O)S(=O)(=O)C(F)(F)F)CCO [AZD4320] (first compound max 10 µM, 7x7, partner max 1 µM) ?
0.45

====

This section presents compounds with their documented Bliss excess values.
# Test system: JHH-6 (Hepatocellular Carcinoma)
# assay: Bliss excess, mean over the matrix (fraction); higher = more synergy
Enter a number only.

See these solved cases before continuing.
CC1(C)CCC(CN2CCN(c3ccc(C(=O)NS(=O)(=O)c4ccc(NCC5CCOCC5)c([N+](=O)[O-])c4)c(Oc4cnc5[nH]ccc5c4)c3)CC2)=C(c2ccc(Cl)cc2)C1 [Venetoclax] + C1CN(CCC1(C(=O)N[C@@H](CCO)C2=CC=C(C=C2)Cl)N)C3=NC=NC4=C3C=CN4 [Capivasertib] (first compound max 1 µM, 7x7, partner max 3 µM)
-0.0791
CN(CCO)CC[C@H](CSc1ccccc1)Nc1ccc(S(=O)(=O)NC(=O)c2ccc(N3CCC([C@@H](O)c4ccccc4-c4ccc(Cl)cc4)CC3)cc2)cc1S(=O)(=O)C(F)(F)F [AZD4320] + C1CN(CCC1(C(=O)N[C@@H](CCO)C2=CC=C(C=C2)Cl)N)C3=NC=NC4=C3C=CN4 [Capivasertib] (first compound max 1 µM, 7x7, partner max 3 µM)
-0.0437
CC(=O)Nc1cccc(-n2c(=O)n(C3CC3)c(=O)c3c(Nc4ccc(I)cc4F)n(C)c(=O)c(C)c32)c1 [Trametinib] + Cc1nc(-c2cn3c(n2)-c2ccc(-c4cnn(C(C)(C)C(N)=O)c4)cc2OCC3)n(C(C)C)n1 [Taselisib] (first compound max 1 µM, 7x7, partner max 10 µM)
0.152

For the compound shown here, CN(CCO)CC[C@H](CSc1ccccc1)Nc1ccc(S(=O)(=O)NC(=O)c2ccc(N3CCC([C@@H](O)c4ccccc4-c4ccc(Cl)cc4)CC3)cc2)cc1S(=O)(=O)C(F)(F)F [AZD4320] + C=CCn1c(=O)c2cnc(Nc3ccc(N4CCN(C)CC4)cc3)nc2n1-c1cccc(C(C)(C)O)n1 [AZD1775] (first compound max 1 µM, partner max 1 µM) , give the reported Bliss excess.
-0.0095

Need Bliss excess, item CN(CCO)CC[C@H](CSc1ccccc1)Nc1ccc(S(=O)(=O)NC(=O)c2ccc(N3CCC([C@@H](O)c4ccccc4-c4ccc(Cl)cc4)CC3)cc2)cc1S(=O)(=O)C(F)(F)F [AZD4320] + C[C@@H](Nc1cc(F)cc(F)c1)c1cc(C(=O)N(C)C)cc2c(=O)cc(N3CCOCC3)oc12 [AZD8186] (first compound max 1 µM, 7x7, partner max 3 µM)
-0.0164

// query Bliss excess value for entry COc1nnc2ccc(N3CCC(c4ccc(OCCN5CCN(C)C(=O)[C@H]5C)cc4)CC3)nn12 [AZD5153] + CCN(CCO)CCCOc1ccc2c(Nc3cc(CC(=O)Nc4cccc(F)c4)[nH]n3)ncnc2c1 [AZD2811] (first compound max 1 µM, 7x7, partner max 1 µM)
-0.0683

====

# Test system: H4 (Low Grade Glioma)
# assay: Bliss excess, mean over the matrix (fraction); higher = more synergy
Kindly return Condition met if reported Bliss excess is no lower than -0.003; return Condition not met if it is lower.

Worked set:
N#Cc1cnc(Nc2cc(NC[C@H]3CNCCO3)c(C(F)(F)F)cn2)cn1 [SRA737] + CCc1c2c(nc3ccc(O)cc13)-c1cc3c(c(=O)n1C2)COC(=O)[C@]3(O)CC [SN-38] (first compound max 10 µM, 7x7, partner max 0.3 µM)
Condition met
CN(CCO)CC[C@H](CSc1ccccc1)Nc1ccc(S(=O)(=O)NC(=O)c2ccc(N3CCC([C@@H](O)c4ccccc4-c4ccc(Cl)cc4)CC3)cc2)cc1S(=O)(=O)C(F)(F)F [AZD4320] + C1CN(CCC1(C(=O)N[C@@H](CCO)C2=CC=C(C=C2)Cl)N)C3=NC=NC4=C3C=CN4 [Capivasertib] (first compound max 1 µM, 7x7, partner max 3 µM)
Condition not met
N#Cc1cnc(Nc2cc(NC[C@H]3CNCCO3)c(C(F)(F)F)cn2)cn1 [SRA737] + C=CCn1c(=O)c2cnc(Nc3ccc(N4CCN(C)CC4)cc3)nc2n1-c1cccc(C(C)(C)O)n1 [AZD1775] (first compound max 10 µM, partner max 1 µM)
Condition met
CC1(C)CCC(CN2CCN(c3ccc(C(=O)NS(=O)(=O)c4ccc(NCC5CCOCC5)c([N+](=O)[O-])c4)c(Oc4cnc5[nH]ccc5c4)c3)CC2)=C(c2ccc(Cl)cc2)C1 [Venetoclax] + CN(C)CCCOc1ccc(-c2ccc3ncc4c(c3c2)n(C2CCOCC2)c(=O)n4C)cn1 [AZD0156] (first compound max 1 µM, 7x7, partner max 1 µM)
Condition not met
CC(=O)c1c(C)c2cnc(Nc3ccc(N4CCNCC4)cn3)nc2n(C2CCCC2)c1=O [Palbociclib] + Cc1c2c(nn1C)CSCc1cc(n(C)n1)CSc1cc(c3ccccc3c1)OCCCc1c(C(=O)O)n(C)c3c-2c(Cl)ccc13 [AZD5991] (first compound max 10 µM, 7x7, partner max 1 µM)
Condition not met
CC1(C)CCC(CN2CCN(c3ccc(C(=O)NS(=O)(=O)c4ccc(NCC5CCOCC5)c([N+](=O)[O-])c4)c(Oc4cnc5[nH]ccc5c4)c3)CC2)=C(c2ccc(Cl)cc2)C1 [Venetoclax] + C[C@@H](Nc1cc(F)cc(F)c1)c1cc(C(=O)N(C)C)cc2c(=O)cc(N3CCOCC3)oc12 [AZD8186] (first compound max 1 µM, 7x7, partner max 3 µM)
Condition not met

State whether the measured Bliss excess reaches -0.003, counting equality as reaching it, for CCN(CCO)CCCOc1ccc2c(Nc3cc(CC(=O)Nc4cccc(F)c4)[nH]n3)ncnc2c1 [AZD2811] + C=CCn1c(=O)c2cnc(Nc3ccc(N4CCN(C)CC4)cc3)nc2n1-c1cccc(C(C)(C)O)n1 [AZD1775] (first compound max 1 µM, partner max 1 µM)
Condition not met

Dear colleague, could you confirm whether CN(CCO)CC[C@H](CSc1ccccc1)Nc1ccc(S(=O)(=O)NC(=O)c2ccc(N3CCC([C@@H](O)c4ccccc4-c4ccc(Cl)cc4)CC3)cc2)cc1S(=O)(=O)C(F)(F)F [AZD4320] + Nc1ccn([C@@H]2O[C@H](CO)[C@@H](O)C2(F)F)c(=O)n1 [Gemcitabine] (first compound max 1 µM, 7x7, partner max 0.3 µM) has Bliss excess at or above -0.003?
Condition met

Could you tell me if the measured Bliss excess of CC1(C)CCC(CN2CCN(c3ccc(C(=O)NS(=O)(=O)c4ccc(NCC5CCOCC5)c([N+](=O)[O-])c4)c(Oc4cnc5[nH]ccc5c4)c3)CC2)=C(c2ccc(Cl)cc2)C1 [Venetoclax] + Cn1cnc2c(F)c(Nc3ccc(Br)cc3Cl)c(C(=O)NOCCO)cc21 [Selumetinib] (first compound max 1 µM, 7x7, partner max 3 µM) reaches -0.003 or more?
Condition met

Does C[C@@H]1COCCN1c1cc(C2([S@](C)(=N)=O)CC2)nc(-c2ccnc3[nH]ccc23)n1 [AZD6738] + C1CC(C1)(C(=O)[O-])C(=O)[O-].N.N.[Pt+2] [Carboplatin] (first compound max 10 µM, 7x7, partner max 10 µM) have a reported Bliss excess of at least -0.003?
Condition met

# check: Bliss excess of C[C@@H](Oc1cc(-c2cnn(C3CCNCC3)c2)cnc1N)c1c(Cl)ccc(F)c1Cl [Crizotinib] + Cn1cnc2c(F)c(Nc3ccc(Br)cc3Cl)c(C(=O)NOCCO)cc21 [Selumetinib] (first compound max 10 µM, 7x7, partner max 10 µM) is greater than or equal to -0.003
Condition met

Hi, just wondering whether Cn1cnc2c(F)c(Nc3ccc(Br)cc3Cl)c(C(=O)NOCCO)cc21 [Selumetinib] + C=CCn1c(=O)c2cnc(Nc3ccc(N4CCN(C)CC4)cc3)nc2n1-c1cccc(C(C)(C)O)n1 [AZD1775] (first compound max 10 µM, partner max 1 µM) shows Bliss excess of -0.003 or higher.
Condition not met

In plain terms: is recorded Bliss excess at least -0.003 for NC1(C(=O)N[C@@H](CCO)c2ccc(Cl)cc2)CCN(c2ncnc3[nH]ccc23)CC1 [Capivasertib] + CC(C)n1c(=O)n(C)c2cnc3cc(F)c(-c4ccc(OCCCN5CCCCC5)nc4)cc3c21 [AZD1390] (first compound max 10 µM, 7x7, partner max 0.3 µM) ?
Condition not met

Does the compound C[C@@H](Nc1cc(F)cc(F)c1)c1cc(C(=O)N(C)C)cc2c(=O)cc(N3CCOCC3)oc12 [AZD8186] + C1CN(CCC1(C(=O)N[C@@H](CCO)C2=CC=C(C=C2)Cl)N)C3=NC=NC4=C3C=CN4 [AZD5363] (first compound max 10 µM, 7x7, partner max 10 µM) have recorded Bliss excess that is -0.003 or more?
Condition not met
